STUDY_TARGET: Cytochrome P450 1A2 (Homo sapiens, UniProt P05177);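 also: PubChem cytochrome P450 panel assay, CYP1A2 panel member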
Sequence (P05177 whole entry): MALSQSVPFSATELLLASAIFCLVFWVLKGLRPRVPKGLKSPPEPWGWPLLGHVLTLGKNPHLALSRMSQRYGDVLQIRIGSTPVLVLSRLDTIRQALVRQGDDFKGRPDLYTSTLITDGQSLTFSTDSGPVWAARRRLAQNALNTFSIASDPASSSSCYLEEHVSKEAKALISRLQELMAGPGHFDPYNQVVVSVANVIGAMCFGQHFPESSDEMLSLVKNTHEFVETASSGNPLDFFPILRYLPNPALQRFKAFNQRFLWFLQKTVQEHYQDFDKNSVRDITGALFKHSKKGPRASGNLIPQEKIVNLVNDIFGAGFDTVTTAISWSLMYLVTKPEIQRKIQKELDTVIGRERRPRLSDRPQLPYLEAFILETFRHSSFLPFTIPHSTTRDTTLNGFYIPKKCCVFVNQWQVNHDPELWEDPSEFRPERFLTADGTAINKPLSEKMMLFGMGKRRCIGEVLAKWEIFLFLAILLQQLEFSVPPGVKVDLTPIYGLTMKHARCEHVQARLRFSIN
Listed next: entries and their corresponding AC50.

Reference set, count: 6
[[record]]
cpd_smiles = "COc1ccc(CC(=O)NCc2ccccn2)cc1OC"
study_target = "Cytochrome P450 1A2 (Homo sapiens, UniProt P05177)"
metric_name = "AC50"
result = "14.1 µM (inconclusive)"

[[record]]
cpd_smiles = "Cc1ccc(NS(=O)(=O)c2ccc(OCC(=O)Nc3cccc([N+](=O)[O-])c3)c(C)c2)cc1"
study_target = "Cytochrome P450 1A2 (Homo sapiens, UniProt P05177)"
metric_name = "AC50"
result = "22.4 µM (inconclusive)"

[[record]]
cpd_smiles = "N#C/C(=C\\c1ccc(O)c(O)c1)C(=O)c1ccc(O)c(O)c1"
study_target = "Cytochrome P450 1A2 (Homo sapiens, UniProt P05177)"
metric_name = "AC50"
result = "31.6 µM (inconclusive)"

[[record]]
cpd_smiles = "COCCNc1cc(-c2ccccc2C(F)(F)F)ncn1"
study_target = "Cytochrome P450 1A2 (Homo sapiens, UniProt P05177)"
metric_name = "AC50"
result = "15.8 µM (inconclusive)"

[[record]]
cpd_smiles = "O=C(O)/C=C\\C(=O)Nc1ccc2c(c1)-c1ccccc1C2"
study_target = "Cytochrome P450 1A2 (Homo sapiens, UniProt P05177)"
metric_name = "AC50"
result = "1 µM (inconclusive)"

[[record]]
cpd_smiles = "Cc1ccc(C(=O)CSc2nc(C)cc(=O)[nH]2)cc1"
study_target = "Cytochrome P450 1A2 (Homo sapiens, UniProt P05177)"
metric_name = "AC50"
result = "31.6 µM (inconclusive)"


Entry O=C(NCc1ccccc1Cl)c1cnccn1 — recorded AC50 = 28.2 µM (inconclusive)

Entry O=C(CSc1nnc(COc2ccccc2)n1-c1ccccc1)c1ccccc1 — recorded AC50 = 28.2 µM (inconclusive)

* * *

Listed next: entries and their corresponding IC50.
STUDY_TARGET: Fatty acid synthase (Homo sapiens, UniProt P49327)
Sequence (P49327 whole entry): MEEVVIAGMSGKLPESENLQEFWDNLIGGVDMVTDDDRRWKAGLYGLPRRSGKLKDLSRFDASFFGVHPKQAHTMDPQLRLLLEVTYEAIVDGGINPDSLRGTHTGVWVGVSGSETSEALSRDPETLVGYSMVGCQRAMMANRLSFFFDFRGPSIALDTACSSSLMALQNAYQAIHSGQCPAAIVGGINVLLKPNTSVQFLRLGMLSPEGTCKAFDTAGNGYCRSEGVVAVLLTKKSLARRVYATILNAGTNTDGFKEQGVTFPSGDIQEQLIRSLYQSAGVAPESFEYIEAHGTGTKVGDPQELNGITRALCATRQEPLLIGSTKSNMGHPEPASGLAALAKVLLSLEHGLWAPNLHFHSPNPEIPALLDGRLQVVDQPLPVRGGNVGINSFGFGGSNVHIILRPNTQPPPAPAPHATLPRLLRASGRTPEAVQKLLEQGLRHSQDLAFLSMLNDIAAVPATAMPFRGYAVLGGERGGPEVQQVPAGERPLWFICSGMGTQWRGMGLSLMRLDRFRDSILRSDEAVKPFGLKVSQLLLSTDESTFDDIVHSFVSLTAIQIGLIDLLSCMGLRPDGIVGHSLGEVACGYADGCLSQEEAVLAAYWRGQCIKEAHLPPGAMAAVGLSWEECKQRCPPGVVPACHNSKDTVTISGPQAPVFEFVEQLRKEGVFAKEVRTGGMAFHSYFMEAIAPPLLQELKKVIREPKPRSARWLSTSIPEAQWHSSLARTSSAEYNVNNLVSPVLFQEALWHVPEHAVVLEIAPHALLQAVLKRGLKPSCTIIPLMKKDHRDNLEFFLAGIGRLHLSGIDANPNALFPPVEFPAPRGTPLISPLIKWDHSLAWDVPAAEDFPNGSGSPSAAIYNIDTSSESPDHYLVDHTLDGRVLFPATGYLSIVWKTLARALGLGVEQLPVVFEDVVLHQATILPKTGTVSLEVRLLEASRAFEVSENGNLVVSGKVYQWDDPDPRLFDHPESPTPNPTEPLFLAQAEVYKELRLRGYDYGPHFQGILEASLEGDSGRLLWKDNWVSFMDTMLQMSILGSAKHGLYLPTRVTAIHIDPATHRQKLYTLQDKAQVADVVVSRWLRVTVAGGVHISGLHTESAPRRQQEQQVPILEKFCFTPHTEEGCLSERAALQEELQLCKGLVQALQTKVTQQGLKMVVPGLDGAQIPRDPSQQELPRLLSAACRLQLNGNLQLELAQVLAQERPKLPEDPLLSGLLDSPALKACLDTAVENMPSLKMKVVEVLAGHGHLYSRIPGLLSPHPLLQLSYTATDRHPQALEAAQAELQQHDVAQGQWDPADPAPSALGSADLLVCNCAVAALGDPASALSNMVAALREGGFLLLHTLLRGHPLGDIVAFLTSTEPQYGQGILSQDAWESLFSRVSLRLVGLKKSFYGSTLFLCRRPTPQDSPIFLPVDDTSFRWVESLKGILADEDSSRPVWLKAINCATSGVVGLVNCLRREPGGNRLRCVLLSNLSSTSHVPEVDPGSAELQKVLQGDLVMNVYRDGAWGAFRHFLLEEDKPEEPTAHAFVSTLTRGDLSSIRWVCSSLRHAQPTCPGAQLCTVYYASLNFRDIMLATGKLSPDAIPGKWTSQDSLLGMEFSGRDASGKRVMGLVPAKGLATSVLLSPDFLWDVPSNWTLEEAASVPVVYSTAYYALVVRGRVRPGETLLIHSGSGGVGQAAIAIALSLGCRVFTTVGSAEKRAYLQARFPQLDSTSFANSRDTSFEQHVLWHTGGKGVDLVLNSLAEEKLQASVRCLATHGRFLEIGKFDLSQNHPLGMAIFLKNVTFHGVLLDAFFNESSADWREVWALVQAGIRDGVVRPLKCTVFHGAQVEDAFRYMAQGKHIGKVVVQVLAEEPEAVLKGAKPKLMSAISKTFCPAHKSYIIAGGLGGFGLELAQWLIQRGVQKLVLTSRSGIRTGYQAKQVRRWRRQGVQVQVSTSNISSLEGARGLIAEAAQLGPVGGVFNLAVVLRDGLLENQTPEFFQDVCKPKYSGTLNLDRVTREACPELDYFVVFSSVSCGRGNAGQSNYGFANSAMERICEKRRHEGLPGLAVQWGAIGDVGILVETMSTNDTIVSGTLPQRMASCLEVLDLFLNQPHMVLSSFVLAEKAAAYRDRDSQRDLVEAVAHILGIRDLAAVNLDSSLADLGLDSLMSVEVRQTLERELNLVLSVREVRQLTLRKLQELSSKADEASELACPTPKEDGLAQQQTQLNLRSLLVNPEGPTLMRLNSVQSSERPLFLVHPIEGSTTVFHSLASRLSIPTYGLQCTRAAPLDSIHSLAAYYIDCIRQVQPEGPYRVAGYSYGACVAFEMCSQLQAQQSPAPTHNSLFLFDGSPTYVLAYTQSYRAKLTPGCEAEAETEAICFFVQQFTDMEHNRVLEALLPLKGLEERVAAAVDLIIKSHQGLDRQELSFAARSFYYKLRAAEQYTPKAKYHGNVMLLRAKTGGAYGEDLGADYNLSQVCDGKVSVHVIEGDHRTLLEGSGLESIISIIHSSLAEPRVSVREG
EXPERIMENTAL_DETAILS: inhibition of human FAS-TE enzyme activity – biochemical, kinetic fluorescence intensity, dose response (AID 624326);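 also: rate of fluorescence rise from hydrolysis of a fluorogenic O-methyl fluorescein ester substrate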
Format: functional
Activity calls are given as the source filed them.

[[record]]
compound = "CC(C)(C)c1ccc(/C=C2\\CCn3c2nc2cc(C(=O)O)ccc2c3=O)cc1"
study_target = "Fatty acid synthase (Homo sapiens, UniProt P49327)"
metric_name = "IC50"
result = "3 µM (active)"


Entry CCn1c(=S)sc2c(=O)n(CC(=O)NC(C)CCc3ccccc3)c(C)nc21 (stereo unspecified) — recorded IC50 = 16.8 µM (active)

* * *

Listed next: entries and their corresponding IC50.
STUDY_TARGET: Nonstructural protein 1 (Influenza A virus)
Sequence (Q194T2 whole entry): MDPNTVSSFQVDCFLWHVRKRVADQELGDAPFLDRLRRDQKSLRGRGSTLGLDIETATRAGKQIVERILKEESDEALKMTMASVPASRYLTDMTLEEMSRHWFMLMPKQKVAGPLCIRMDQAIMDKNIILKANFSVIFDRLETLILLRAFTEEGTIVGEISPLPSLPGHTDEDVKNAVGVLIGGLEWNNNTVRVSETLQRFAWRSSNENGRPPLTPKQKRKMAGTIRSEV
Format: functional, Influenza A virus (A/California/07/2009(H1N1))
Calls of active or inactive are those of the source.

Reference set, count: 9
[[record]]
compound = "COc1cc(OC)c2ccc(=O)oc2c1C(CCN1CCN(c2ccccc2)CC1)c1ccc(N(C)C)cc1 (stereo not given)"
metric_name = "IC50"
result = "32.5 µM (active)"

[[record]]
compound = "Cc1ccc(-n2cnn(-c3ccc([N+](=O)[O-])cc3[N+](=O)[O-])c2=O)cc1"
metric_name = "IC50"
result = "> 100 µM (active)"

[[record]]
compound = "CC(=NNC(=S)Nc1cccc(C)c1)c1ccccn1"
metric_name = "IC50"
result = "8.54 µM (active)"

[[record]]
compound = "CCC(C)Nc1nc(-c2ccccn2)nc2ccccc12 (stereo not given)"
metric_name = "IC50"
result = "25.5 µM (active)"

[[record]]
compound = "O=C(CSc1ccc(-c2ccccn2)nn1)NCc1ccc(Cl)cc1"
metric_name = "IC50"
result = "41.9 µM (active)"

[[record]]
compound = "O=C(c1ccc2[nH]c3c(c2c1)CCCC3)N1CCN(c2ccc(F)cc2)CC1"
metric_name = "IC50"
result = "> 100 µM (active)"

[[record]]
compound = "CCN(CC)c1ccc(/C=C2\\C(=O)N(c3nnc(C)c(O)n3)N=C2C)cc1"
metric_name = "IC50"
result = "12.6 µM (active)"

[[record]]
compound = "CCOC(=O)N1CCN(C2=C(NS(=O)(=O)c3ccc(C)cc3)C(=O)c3ccccc3C2=O)CC1"
metric_name = "IC50"
result = "21.5 µM (active)"

[[record]]
compound = "CN1C(=O)/C(=C/c2cc(N=Nc3ccccc3)ccc2O)SC1=S"
metric_name = "IC50"
result = "14.5 µM (active)"


Let's switch to this compound now.
Entry COc1ccc(N2CCN(C(=O)CCC(=O)N3CCOc4ccc(Cl)cc43)CC2)cc1 — recorded IC50 = > 100 µM (active)
